protocol.notes: fluorescence excitation/emission and quantum yield of benzo[c]xanthene dyes
Format: physicochemical
condition.info: relative to fluorescein or sulforhodamine 101
# APPROX. QY. (quantum yield) values compiled below

Field APPROX. QY. (quantum yield) (entry CCNc1cc2c(cc1C)C1(OC(=O)c3ccccc31)c1ccc3cc(O)ccc3c1O2 (centres unmarked) ) reads ~0.38

Lab note: measured APPROX. QY. (quantum yield) of CCN(CC)c1ccc2c(c1)Oc1c(ccc3cc(O)ccc13)C21OC(=O)c2ccccc21 (centres unmarked) was ~0.23

// O=C(O)c1ccc2c(c1)C1(OC2=O)c2cc(Cl)c(O)cc2Oc2c1ccc1cc(O)ccc21 (centres unmarked) : APPROX. QY. (quantum yield) value = ~0.48

Lab book: APPROX. QY. (quantum yield) of CN(C)c1ccc2c(c1)Oc1c(ccc3cc(O)ccc13)C21OC(=O)c2ccccc21 (centres unmarked) noted as ~0.19

Lab note: O=C(O)c1ccc2c(c1)C(=O)OC21c2cc3c4c(c2Oc2c1ccc1cc(O)ccc21)CCCN4CCC3 (centres unmarked) gave APPROX. QY. (quantum yield) of ~0.35

# molecule CCN(CC)c1ccc2c(c1)Oc1c(ccc3cc(O)ccc13)C21OC(=O)c2ccc(C(=O)O)cc21 (centres unmarked) ; its APPROX. QY. (quantum yield) = ~0.24

molecule CN(C)c1ccc2c(c1)Oc1c(ccc3cc(O)ccc13)C21OC(=O)c2cc(C(=O)O)ccc21 (centres unmarked) , APPROX. QY. (quantum yield) observed: ~0.20

Query molecule follows.
Measured APPROX. QY. (quantum yield) of O=C1OC2(c3ccc(O)cc3Oc3c2ccc2cc(O)ccc32)c2ccccc21 (centres unmarked) : ~0.34

----------
protocol.notes: absorption spectra (maxima and extinction coefficients) of benzo[c]xanthene dyes
Assay type: physicochemical
condition.info: acid form, shorter-wavelength maximum
Quick reference: ABSORPTION, ACID MAXIMA (first) of the listed items.
The reply should be a number in NM, with the unit left off.

Form: molecule = CN(C)c1ccc2c(c1)Oc1c(ccc3cc(O)ccc13)C21OC(=O)c2cc(C(=O)O)ccc21 (stereo not drawn) ; ABSORPTION, ACID MAXIMA (first) = 518

The recorded ABSORPTION, ACID MAXIMA (first) for entry CCNc1cc2c(cc1C)C1(OC(=O)c3ccccc31)c1ccc3cc(O)ccc3c1O2 (stereo not drawn) equals 495

The reported value for O=C(O)c1ccc2c(c1)C(=O)OC21c2cc3c4c(c2Oc2c1ccc1cc(O)ccc21)CCCN4CCC3 (stereo not drawn) in terms of ABSORPTION, ACID MAXIMA (first) is 529
